# key: entry, value: GI50
# Test system: SK-OV-3 ovarian
# ASSAY_COMMENT: NCI tumour cell line growth inhibition, 48 h

Ask | Lookup: GI50 / SK-OV-3 ovarian / `C=C1C(=O)O[C@H]2[C@H]1CC/C(COC(=O)CCCC(=O)OC/C1=C/CC[C@@]3(C)O[C@H]3[C@H]3OC(=O)C(=C)[C@@H]3CC1)=C\CC[C@@]1(C)O[C@@H]21`
Reply | 9.89 µM

Ask | Request - read-out GI50 | tested on SK-OV-3 ovarian | compound `[Cl-].[Nd+3].[O-]/N=C(\c1ccccc1)c1ccccn1.[O-]/N=C(\c1ccccc1)c1ccccn1.[O-]/N=C(\c1ccccc1)c1ccccn1`
Reply | 37.1 µM

Ask | Give SK-OV-3 ovarian GI50 for `Cc1cc(Oc2ccccc2)ccc1Nc1ncnc2ccc(-c3cnc(Cl)c(NS(C)(=O)=O)c3)cc12`
Reply | 0.505 µM

Ask | Given the entry `CCCCCCCC(=O)SCC/C=C/[C@@H]1CC(=O)NCc2cccc(n2)CN(Cc2ccc3ccccc3c2)CC(=O)N[C@@H](C(C)C)C(=O)O1` , what GI50 was observed with SK-OV-3 ovarian?
Reply | 40 µM

====

# maps each entry to its TGI
# Tested on: OVCAR-5 ovarian
# ASSAY_COMMENT: NCI tumour cell line growth inhibition, 48 h

Answered examples (6):
> print(dat)
                                   molecule  readout.type  endpoint.result
1  COc1cc(/C=C2\N=C(c3ccccc3)N(c3nc4ccc(Sc5ccccc5)cc4[nH]3)C2=O)ccc1O           TGI         > 100 µM
2  CC[C@@]1(O)C(=O)OCc2c1cc1n(c2=O)Cc2c-1nc1ccccc1c2Cl           TGI          3.65 µM
3       CC(=O)OCCOCn1c2c(c(=O)[nH]c1=O)CCC2           TGI         > 100 µM
4  O=C1CC2(CCC(O)(c3ccccc3)C(C(=O)c3ccccc3)C2)C(=O)c2ccccc2N1 (stereo not drawn)           TGI         > 100 µM
5  O=c1cc(NCC(O)CN2CCOCC2)n(Cc2ccccc2)c(=O)n1Cc1ccccc1 (stereo not drawn)           TGI         > 100 µM
6  Cc1cc(Nc2ccc3c(c2)OCO3)c2cc3c(cc2n1)OCO3           TGI          41.1 µM

// next item, TGI requested
Ask | API: value(readout=TGI, system=OVCAR-5 ovarian) for record `ClC1=C(Cl)C(Cl)(Cl)SS1`
Reply | > 10 µM

====

TGI overview
# Tested on: MDA-MB-435
# ASSAY_COMMENT: NCI tumour cell line growth inhibition, 48 h
Provide only the numeric value, understood in µM.

Consider the worked cases shown below.
COMPOUND	TARGET_OR_SYSTEM	TGI [µM]
CC1OC(OC2C(O)CC(OC3C(O)CC(OC4CCC5(C)C(CCC6C5CCC5(C)C(C7=CC(=O)OC7)CCC65O)C4)OC3C)OC2C)CC(O)C1O (stereo not given)	MDA-MB-435	0.147
CC(C)OC(=O)c1cc(NS(=O)(=O)c2ccc3ccccc3c2)cc(C(=O)OC(C)C)c1	MDA-MB-435	73.2
C=C1C(=O)O[C@H]2[C@H]1CC/C(COC(=O)CCSSCCC(=O)OC/C1=C/CC[C@@]3(C)O[C@H]3[C@H]3OC(=O)C(=C)[C@@H]3CC1)=C\CC[C@@]1(C)O[C@@H]21	MDA-MB-435	3.07

Ask | Recorded TGI for COc1cc2c(cc1OCc1ccccc1)N=CC1C[C@@H](O)CN1C2=O (stereo not given in full) with MDA-MB-435, please?
Reply | 14.7

Ask | Return TGI measured with MDA-MB-435 given this compound: CC(=O)OC1Oc2ccccc2-c2oc(=O)c(-c3ccc(F)cc3)cc21 (stereo not given)
Reply | 40.3

====

# Test system: SK-MEL-5 melanoma
# ASSAY_COMMENT: NCI tumour cell line growth inhibition, 48 h
READOUT_TYPE: TGI

Previously resolved entries follow.
> print(dat)
                                   compound  endpoint.result
1  O=C1c2cc3ccccc3cc2C2(c3ccc(Cl)cc3)NCCN12 (configuration not stated)          40.4 µM
2  NC1=NS(=O)(=O)Nc2nc(-c3ccc(Cl)cc3)[nH]c21         > 100 µM

Ask | Fill in the recorded TGI for this compound, with SK-MEL-5 melanoma as test system: `CN1CCN(C(=S)N(C(=O)c2ccco2)C2CCCCC2)CC1`
Reply | > 100 µM

Ask | Entry `ClC1=C(Cl)C(Cl)(Cl)SS1` , system SK-MEL-5 melanoma: what TGI was measured?
Reply | > 10 µM

Ask | // fetch SK-MEL-5 melanoma TGI for `O=C(Nc1cccc(Cl)c1)Nc1nccs1`
Reply | 30.6 µM

Ask | Lab request: please report TGI under test system SK-MEL-5 melanoma for `NC(=O)NN/C=C(/C=Nc1ccccc1)[N+](=O)[O-]`
Reply | > 100 µM

====

# Test system: LXFL 529 NSCLC
# ASSAY_COMMENT: NCI tumour cell line growth inhibition, 48 h
READOUT_TYPE: TGI

> print(dat)
                                   molecule  readout.type  endpoint.result
1  CCOc1ccc2nc(NC(=O)C(=O)C(C#N)CC(C)(C)C=O)sc2c1 (stereo unspecified)           TGI         > 100 µM
2  CC(=O)NNc1nc(C)c(C(=O)/C=C/c2cccc([N+](=O)[O-])c2)s1           TGI         > 100 µM
3  CC1(C)c2ccccc2C(C)(C)C(C(=O)Nc2ccccc2)C1C(=O)O (stereo unspecified)           TGI         > 100 µM
4  Cc1cc(O)c(C=O)c(C)c1CCC1(C)C=Cc2cc(O)ccc2O1 (stereo unspecified)           TGI          29.8 µM
5  COC(=O)C1CCC2(C)[C@H](CCC3O[C@]32C)[C@@]1(C)CC(=O)c1ccoc1 (stereo partly specified)           TGI         > 100 µM
6        NCCc1ccc2oc3cc(=O)c4ccccc4c-3nc2c1           TGI          13.4 µM
7  CCCCCCCCCCn1cccc1/C=C/c1ccc(/C=C/c2cccn2CCCCCCCCCC)cc1           TGI         > 100 µM
8  COc1nc(NC2OCC(OC(C)=O)C(OC(C)=O)C2OC(C)=O)c(-c2csc(N)n2)c(=O)n1C (stereo unspecified)           TGI         > 100 µM

Ask | What value of TGI on LXFL 529 NSCLC does `Cc1ccccc1N(CC(=O)O)S(=O)(=O)c1ccccc1` have?
Reply | > 100 µM

Ask | Give the reported TGI for `Nc1ccc(S(=O)(=O)Nc2cnc3ccccc3n2)cc1` (system: LXFL 529 NSCLC).
Reply | > 100 µM

Ask | Param readout = TGI; param system = LXFL 529 NSCLC; param query = `[Cl-].[Nd+3].[O-]/N=C(\c1ccccc1)c1ccccn1.[O-]/N=C(\c1ccccc1)c1ccccn1.[O-]/N=C(\c1ccccc1)c1ccccn1` ; response: value
Reply | > 100 µM

====

# Test system: SF-539 CNS
# ASSAY_COMMENT: NCI tumour cell line growth inhibition, 48 h
READOUT_TYPE: log10 of TGI (log10 of the value in µM)
Heads up, the numbers here are log10 of TGI in µM units.

COMPOUND	ENDPOINT_RESULT
c1ccc([Si](OCCN2CC2)(c2ccccc2)c2ccccc2)cc1	1.43

Ask | Requested field: log10 of TGI. Item: `COc1ccc2nc3cccc([N+](=O)[O-])c3c(NCCNCCO)c2c1`
Reply | -0.73

Ask | # log10 of TGI lookup, item O=C1c2cc3ccccc3cc2C2(c3ccc(Cl)cc3)NCCN12 (stereo unspecified)
Reply | 1.79

Ask | Param item = `Oc1cccc(-c2nc(-c3n[nH]c(=S)n3-c3ccccc3)cc3c2[nH]c2ccccc23)c1` ; retrieve measured log10 of TGI.
Reply | 0.60

Ask | Form field: reported log10 of TGI of `C=CC(=O)N1C[C@H](COc2nc(Nc3cnn(C)c3)nc3[nH]cc(Cl)c23)[C@@H](OC)C1`
Reply | 0.66

Ask | // log10 of TGI lookup, key: COc1cc2c(cc1OCc1ccccc1)N=CC1C[C@@H](O)CN1C2=O (stereo partly specified)
Reply | 0.83

====

# Tested on: ACHN renal
# ASSAY_COMMENT: NCI tumour cell line growth inhibition, 48 h
READOUT_TYPE: TGI

Past entries and their recorded results:
> print(dat)
                                   compound  endpoint.result
1  c1ccc([Si](OCCN2CC2)(c2ccccc2)c2ccccc2)cc1          27.9 µM
2  NS(=O)(=O)c1nnc(NS(=O)(=O)c2ccc(F)cc2)s1         > 100 µM
3       O=CN/N=C/c1ccc(Cl)c([N+](=O)[O-])c1         > 100 µM
4    COc1ccc2nc3ccccc3c(NCc3ccc(Cl)cc3)c2c1          2.89 µM
5  Cc1ccc(Cl)cc1-c1nc(N)nc(Nc2ccc(Br)cc2)n1         > 100 µM

Ask | Record `O=C1N[C@@H]2[C@@H](O)[C@@H](O)[C@H](O)C[C@H]2c2cc3c(c(O)c21)OCO3` : what is its TGI with ACHN renal?
Reply | 0.825 µM

Ask | Provide value of TGI for this record tested with ACHN renal: `Nc1ccc(I)cn1`
Reply | > 100 µM

Ask | Could you share what TGI was measured for `O=c1[nH]c2[nH]c(-c3ccc(Br)cc3)cc2c2ccccc12` , tested on ACHN renal?
Reply | > 100 µM

Provenance of the data: PubChem BioAssay (NCI)
